procedure-summary: method code SF-GLC, from DOI: 10.1002/qsar.19850040403
condition-parameters: pH 13.0
Listing of entries alongside the reported logD.
Lab note: jot the number down without any unit.

Worked examples follow.
{"columns": ["molecule", "logD"],
 "data": [
  ["CCCN(CC)CC(F)(F)F", 2.38],
  ["CCCN(CC)CCC", 2.68],
  ["CCCN(C)CC(F)(F)F", 2.18],
  ["CCCNC(C)CC (centres undefined)", 1.91],
  ["CCN(CC)CC(F)(F)F", 1.88],
  ["C1CCNC1", 0.46]
]}

Field: next molecule
// lookup logD for CCN(C)C
0.7

----------
procedure-summary: method code SF-GLC, from DOI: 10.1002/qsar.19850040403
condition-parameters: pH 13.0
So basically: logD at 0.7 or higher? That is true. Lower than 0.7? That is false.

{"columns": ["molecule", "assigned-category"],
 "data": [
  ["CCCCCCCN", "true"]
]}

Exam item: decide whether the reported logD for CCCN(CCC)CCC is at least 0.7.
true

----------
procedure-summary: method code SF-GLC, from DOI: 10.1002/qsar.19850040403
condition-parameters: pH 13.0
Binned logD; ranges: group A: < 0.7; group B: ≥ 0.7 and < 1; group C: ≥ 1

Reference set, count: 5
{"columns": ["compound", "assigned-category"],
 "data": [
  ["CCCNCC(C)C", "group C"],
  ["CCCCNCCC", "group C"],
  ["CC(C)N", "group A"],
  ["CCNC", "group A"],
  ["CCNC(C)C", "group B"]
]}

Assign a bin to CCCCCN
group C

# bin lookup: classify C1CN2CCC1CC2 by its logD
group C

Please indicate the class for C=CCNCCC based on its logD.
group C

Which class is correct for the following compound? CCCCC(CC)CN (stereo not given)
group C

Band for CC(C)CN ?
group B

// return the class label for NCC(F)(F)F
group A

Assign a category based on measured logD for CCNCC(F)(F)F and give only the class name.
group B

Dear colleague, I would appreciate it if you could identify the bin for CN(C)CC(F)(F)F and reply at your convenience.
group C

Which class holds C=CCNCC ?
group B

Kindly state the category for this compound: CNCC(F)(F)F
group A

Values compiled from the SangsterLogP compilation.
